Where do the numbers come from? From paper PMC6354023.

test: Pharmacokinetics of SAR405838 (whole-blood concentrations) in combination; assay type: in vivo, human; settings: human, whole blood, oral, DL1 SAR405838 200 mg QD + pimasertib 45 mg BID; C2D1; read-out: SAR405838 t1/2 (converted)
Observed property: half-life (h)
Give a bare numeral; the unit h is implied.

Any idea what half-life was measured for `CC(C)(C)C[C@@H]1N[C@@H](C(=O)N[C@H]2CC[C@H](O)CC2)[C@H](c2cccc(Cl)c2F)[C@]12C(=O)Nc1cc(Cl)ccc12` ?
10.8

----------
experiment: Pharmacokinetics of SAR405838 (whole-blood concentrations) in combination; type: in vivo, human; conditions: human, whole blood, oral, DL2b SAR405838 300 mg QD + pimasertib 45 mg BID; C2D1; read-out: SAR405838 tmax, median (range)
Observed property: Tmax (h)
Give a bare numeral; the unit h is implied.

Any idea what Tmax was measured for `CC(C)(C)C[C@@H]1N[C@@H](C(=O)N[C@H]2CC[C@H](O)CC2)[C@H](c2cccc(Cl)c2F)[C@]12C(=O)Nc1cc(Cl)ccc12` ?
1.5
